The reported measurements were obtained from paper PMC4703045.

System: PKG Iα (Bos taurus, UniProt P00516)
Sequence (P00516 1-671): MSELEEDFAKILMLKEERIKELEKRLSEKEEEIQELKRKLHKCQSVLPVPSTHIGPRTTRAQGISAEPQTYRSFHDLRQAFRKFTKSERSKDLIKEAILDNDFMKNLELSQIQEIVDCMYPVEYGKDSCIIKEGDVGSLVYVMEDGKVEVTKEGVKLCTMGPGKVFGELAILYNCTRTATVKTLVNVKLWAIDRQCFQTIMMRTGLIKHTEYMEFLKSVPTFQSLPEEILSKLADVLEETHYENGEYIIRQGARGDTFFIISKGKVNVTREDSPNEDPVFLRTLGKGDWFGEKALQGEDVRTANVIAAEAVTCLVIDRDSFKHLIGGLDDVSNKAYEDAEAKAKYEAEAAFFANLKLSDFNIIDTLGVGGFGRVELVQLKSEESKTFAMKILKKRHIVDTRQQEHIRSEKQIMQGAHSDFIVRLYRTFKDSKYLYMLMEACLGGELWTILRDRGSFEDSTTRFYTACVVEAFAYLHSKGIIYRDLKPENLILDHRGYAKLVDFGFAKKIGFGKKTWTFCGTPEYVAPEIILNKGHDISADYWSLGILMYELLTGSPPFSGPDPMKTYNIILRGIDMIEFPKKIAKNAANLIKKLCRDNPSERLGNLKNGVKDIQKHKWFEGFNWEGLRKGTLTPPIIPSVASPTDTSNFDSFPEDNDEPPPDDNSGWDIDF
Procedure Text: PKG Iα kinase activation, γ32P-ATP incorporation assay with W15 substrate
Format: biochemical
Quantity Measured: EC50 (µM)
Return type: number; implicit unit µM.

Known results for substances:
Enquiry: Entry under review: Ac-DVSNKAYEDAEAKAKYEAEAAFFANLK-NH2 [S1.2] . Reported EC50?
Return: 35

Enquiry: Try Ac-DAEAKAKYEAEAAFFANLKLSD-NH2 [S1.10] next.
Return: 45

Enquiry: Try Ac-DVSNKAYEDAEAKAKYEAEAAFFANLKLSD-NH2 [S1.1] next.
Return: 35

Enquiry: Try Ac-NKAYEDAEAKAKYEAEAAFFANLKLSD-NH2 [S1.4] next.
Return: 12

Turning to the following substance.
Enquiry: Entry under review: Ac-EDAEAKAKYEAEAAFFANLKLSD-NH2 [S1.9] . Reported EC50?
Return: 43
